Every entry's value here was drawn from PubChem BioAssay AID463229.

- System: INS-1E rat beta cells, no cytokines, CellTiter-Glo ATP, 48 h
- assay_explanation: cytokine-free beta-cell viability effect – INS-1E rat cells, ATP luminescence, cherry pick, counter-screen for beta-cell apoptosis protection project, dose response (AID 463229)
reported_metric: AC50

Some entries whose results are on file:
| compound | measured_value |
| --- | --- |
| CC(=O)NC(c1cccc([N+](=O)[O-])c1)c1ccc2cccnc2c1O (configuration not stated) | 2.58 µM |
| COc1ccc(C[C@H]2CN3C(=NC[C@@H]3Cc3ccccc3)N2CCNC(=O)CCC2CCCCC2)cc1 | 12.1 µM |
| CCCCC(CC)CN=C(N)NC(N)=NCCCCCCN=C(N)NC(N)=NCC(CC)CCCC (configuration not stated) | 2.35 µM |
| Cc1ccc(S(=O)(=O)N2CCOCC2)cc1C(=O)Nc1nc(-c2ccccn2)cs1 | 7.77 µM |
| CCC(/C=C1\Sc2ccc(OC)cc2N1CC)=C\c1sc2ccc(OC)cc2[n+]1CCCS(=O)(=O)[O-] | 5.74 µM |
| CCCCCn1c(=O)c(C(=O)Nc2nc3ccccc3[nH]2)c(O)c2ccccc21 | 7.03 µM |

Next compound, AC50 to be filled in.
Lookup result for "CC(C)(C)c1cc(C(=O)N/N=C/c2ccc([N+](=O)[O-])s2)n[nH]1" ; measured AC50: 6.84 µM

----------
Quick list: AC50 per entry.
- Test system: INS-1E rat beta cells, no cytokines, CellTiter-Glo ATP, 48 h
- assay_explanation: cytokine-free beta-cell viability effect – INS-1E rat cells, ATP luminescence, cherry pick, counter-screen for beta-cell apoptosis protection project, dose response (AID 463229)

| compound | tested_system | AC50 |
| --- | --- | --- |
| Cc1ccc(C2(c3ccc(C)cc3)CC2C(=O)Nc2ccc([N+](=O)[O-])cc2O)cc1 (stereo not drawn) | INS-1E rat beta cells, no cytokines, CellTiter-Glo ATP, 48 h | 3.79 µM |

Lookup result for "C#CCOCCOCCOCCNc1nc(N2CCN(C(=O)CCCCCCCCCCNC(=O)[C@H]([C@@H](C)CC)n3cc(CCCCN=C(N)N)nn3)CC2)nc(N2CCN(C(=O)CCCCCCCCCCNC(=O)[C@H](CCCCN)n3cc(C)nn3)CC2)n1" ; measured AC50: 6.28 µM

Lookup result for COc1ccc(C2C(O)C(c3c[nH]c4ccccc34)=NN2C(=O)CCl)cc1 (stereo not drawn) ; measured AC50: 2.9 µM

----------
- Test system: INS-1E rat beta cells, no cytokines, CellTiter-Glo ATP, 48 h
- assay_explanation: cytokine-free beta-cell viability effect – INS-1E rat cells, ATP luminescence, cherry pick, counter-screen for beta-cell apoptosis protection project, dose response (AID 463229)
reported_metric: AC50

| compound | tested_system | AC50 |
| --- | --- | --- |
| C/C(=N\NC(=O)c1ccc(NS(=O)(=O)c2cccs2)cc1)c1ccccn1 | INS-1E rat beta cells, no cytokines, CellTiter-Glo ATP, 48 h | 13.3 µM |
| Cc1ccc2c(c1)[nH]c1c(N3CCN(Cc4ccccc4)CC3)ncnc12 | INS-1E rat beta cells, no cytokines, CellTiter-Glo ATP, 48 h | 8.07 µM |
| N#CC(c1ccc(Cl)cc1)c1ccc2c(C(F)(F)F)cc(C(F)(F)F)nc2n1 (centres undefined) | INS-1E rat beta cells, no cytokines, CellTiter-Glo ATP, 48 h | 0.898 µM |

Lookup result for "O=C(NNc1ccnc2cc(Cl)ccc12)C1CCCCC1" ; measured AC50: 2.53 µM
